Target: Aldehyde dehydrogenase, mitochondrial (Homo sapiens)
Assay: qHTS for Inhibitors of the Aldehyde Dehydrogenase Family (ALDH2) Primary screen (AID 2061308); further: nearly all actives have a fitted effect of over 55% in size
Settings: ALDH2 enzyme inhibition qHTS, 1536-well; series mostly up to 56 µM
Inconclusive results are not listed. The source made the active and inactive calls. The call rests on the fitted dose curve; in most records, active means well fitted inhibition curve with a large enough effect; inconclusive means small, poorly fitted or top-dose-only effect; inactive means flat fitted curve, though single readings scatter.
Measured Property: outcome

// below: answered compounds
INSERT INTO measurements (mol, experimental_value) VALUES
  ('Cc1cc(C)nc(NC(=S)N2CCN(c3ccc4ccccc4n3)CC2)c1', 'inactive'),
  ('S=C(NCCCc1cnc[nH]1)NCCN(Cc1ccc(Cl)c(Cl)c1)c1ccc(Br)cn1', 'inactive'),
  ('NC(=O)C1CCN(c2nc(-c3cccc(F)c3)cs2)CC1', 'inactive'),
  ('COc1ccc(C(=O)N(Cc2ccccc2)Cc2cccs2)c(O)c1', 'inactive'),
  ('Cc1ccc(-c2ccc(=O)n(CC(=O)NCCc3ncc[nH]3)n2)cc1', 'inactive');

Provide outcome for all items below, preserving their order.
1. C=CC(C)(C)c1[nH]c2ccccc2c1C[C@@H]1NC(=O)[C@H](C)NC1=O
2. Cc1ccc(S(=O)(=O)Nc2cnccc2C(=O)Nc2nc(-c3ccc(-c4ccccc4)cc3)cs2)cc1
3. Cc1ccc(S(=O)(=O)Nc2cc(Cl)cc(C(=O)Nc3nc(-c4ccccc4)cs3)c2)cc1
4. c1ccc(CNc2ccc(N3CCOCC3)cc2)cc1
5. CN(C)CCCNC(=O)c1ccc(-c2cnc3c(O)cccc3c2)cc1

Given back:
["inactive", "inactive", "inactive", "inactive", "inactive"]
